# testedSystem: human MAGL (His-hMAGL) (Homo sapiens)
# Construct: made in house; host or cells: Escherichia coli BL21(DE3)
# protocolDetails: Measurement of MAGL inhibitory activity by mass spectrometry
# Format: biochemical
# runConditions: MAGL inhibitory rate, test compound 10 μM, His-hMAGL, substrate 2-arachidonylglycerol, RapidFire-mass spectrometry
Counter-ions that a name gives are not always drawn.
parameterMeasured: inhibition at 10 µM (%)

1. Cc1ccnc(C)c1-c1cccc(N2CC(N3CCN(C(=O)c4nccs4)CC3)CC2=O)c1 (stereo not shown) :: 102
2. O=C(c1nccs1)N1CCN(C2CC(=O)N(c3cccc(-c4cccc(OC(F)(F)F)c4)c3)C2)CC1 (stereo not shown) :: 103
3. O=C(c1nccs1)N1CCN(C2CC(=O)N(c3cccc(-c4ccccc4-c4ccccc4)c3)C2)CC1 (stereo not shown) :: 101
4. O=C(c1nccs1)N1CCN(C2CC(=O)N(c3cccc(-c4ccc(F)c(C(F)(F)F)c4)c3)C2)CC1 (stereo not shown) :: 101
5. O=C(c1nccs1)N1CCN(C2CC(=O)N(c3ccc(-c4cnn5ccccc45)cc3)C2)CC1 (stereo not shown) :: 100
6. O=C(c1nccs1)N1CCN(C2CC(=O)N(c3cccc(-c4cccn5ccnc45)c3)C2)CC1 (stereo not shown) :: 100
7. O=C(c1nccs1)N1CCN([C@@H]2CC(=O)N(c3ccc4c(ccn4-c4ncc(C(F)(F)F)cn4)c3)C2)CC1 [Example 257, hydrochloride] :: 99

---

Let's look at some molecules and their measured inhibition at 10 µM.
# testedSystem: human MAGL (His-hMAGL) (Homo sapiens, UniProt Q99685)
# Construct: made in house; host or cells: Escherichia coli BL21(DE3)
# protocolDetails: Measurement of MAGL inhibitory activity by mass spectrometry
# Assay type: biochemical
# runConditions: MAGL inhibitory rate, test compound 10 μM, His-hMAGL, substrate 2-arachidonylglycerol, RapidFire-mass spectrometry
# Procedure: Thereafter, to each well was added 150 μM 2-arachidonylglycerol (Tocris Bioscience) by 5 μL, and the mixture was incubated at room temperature for 10 min. […] The amount of arachidonic acid in the obtained enzyme reaction mixture was calculated by measuring by RapidFire-mass spectrometry and correcting by the amount of arachidonic acid-d8. […] The peak area integration was analyzed using RapidFire integrator software version 3.6 (Agilent Technologies, Inc.). […]
parameterMeasured: inhibition at 10 µM (%)

1. O=C(c1nccs1)N1CCN(C2CC(=O)N(c3ccc4c(ccn4-c4nccc(C(F)(F)F)n4)c3)C2)CC1 (stereo not drawn) :: 99
2. Cc1c(-c2ccccc2)cccc1N1CC(N2CCN(C(=O)c3nccs3)CC2)CC1=O (stereo not drawn) :: 96
3. O=C(c1nccs1)N1CCN(C2CC(=O)N(c3cccc(-c4cccc(Cl)c4Cl)c3)C2)CC1 (stereo not drawn) :: 103
4. Cc1cc(Cl)ccc1-c1cccc(N2CC(N3CCN(C(=O)c4nccs4)CC3)CC2=O)c1 (stereo not drawn) :: 98
5. CC(C)(C)OC(=O)N1CCc2cc(N3CC(N4CCN(c5ncccn5)CC4)CC3=O)ccc21 (stereo not drawn) :: 98
6. Cc1ccc(-n2ccc3cc(N4CC(N5CCN(C(=O)c6nccs6)CC5)CC4=O)ccc32)nc1 (stereo not drawn) :: 100
7. O=C(c1nccs1)N1CCN(C2CC(=O)N(c3cccc(-c4cccc(C(F)(F)F)c4)c3)C2)CC1 (stereo not drawn) :: 103
8. O=C(c1nccs1)N1CCN(C2CC(=O)N(c3ccc(-c4ccsc4)cc3)C2)CC1 (stereo not drawn) :: 98
9. CN1C(=O)Cc2c(-c3cccc(N4CC(N5CCN(C(=O)c6nccs6)CC5)CC4=O)c3)cccc21 (stereo not drawn) :: 101
10. Cc1cc(C)cc(-n2ccc3cc(N4CC(N5CCN(C(=O)c6nccs6)CC5)CC4=O)ccc32)c1 (stereo not drawn) :: 101
11. Cc1ccc(-c2ccc(N3CC(N4CCN(C(=O)c5nccs5)CC4)CC3=O)cc2)cc1 (stereo not drawn) :: 102
12. O=C(c1nccs1)N1CCN(C2CC(=O)N(c3ccc4c(c3)CCN4C(=O)CC3CC3)C2)CC1 (stereo not drawn) :: 100
13. COc1c(-c2cccc(N3CC(N4CCN(C(=O)c5nccs5)CC4)CC3=O)c2)ccc2c1NC(=O)C2 (stereo not drawn) :: 100
14. O=C(c1nccs1)N1CCN(C2CC(=O)N(c3ccc4c(c3)CCN4C(=O)Cc3cccc(Cl)c3)C2)CC1 (stereo not drawn) :: 98
15. O=C(c1cscn1)N1CCN([C@@H]2CC(=O)N(c3ccc4c(ccn4-c4ccc(C(F)(F)F)cn4)c3)C2)CC1 :: 96
16. NS(=O)(=O)c1cccc(-c2ccc(N3CC(N4CCN(C(=O)c5nccs5)CC4)CC3=O)cc2)c1 (stereo not drawn) :: 96
17. O=C(c1nccs1)N1CCN(C2CC(=O)N(c3ccc4c(c3)CCN4C(=O)c3ccccc3)C2)CC1 (stereo not drawn) :: 97
18. Cc1ccccc1-n1ccc2cc(N3CC(N4CCN(C(=O)c5nccs5)CC4)CC3=O)ccc21 (stereo not drawn) :: 101
19. O=C(c1nccs1)N1CCN([C@@H]2CC(=O)N(c3ccc4c(ccn4-c4ccnc(C(F)(F)F)c4)c3)C2)CC1 :: 98
20. O=C(c1nccs1)N1CCN(C2CC(=O)N(c3cccc(-c4ccccc4Oc4ccccc4)c3)C2)CC1 (stereo not drawn) :: 104
21. O=C(c1nccs1)N1CCN(C2CC(=O)N(c3ccc(-c4ccccc4C(F)(F)F)cc3)C2)CC1 (stereo not drawn) :: 101
22. O=C(c1cscn1)N1CCN([C@@H]2CC(=O)N(c3ccc4c(c3)CCN4c3ccc(C(F)(F)F)cn3)C2)CC1 :: 89
23. O=C(c1nccs1)N1CCN([C@@H]2CC(=O)N(c3ccc4c(ccn4-c4cnc(C(F)(F)F)cn4)c3)C2)CC1 :: 98
24. O=C(c1nccs1)N1CCN(C2CC(=O)N(c3ccc(-c4cccc(CO)c4)cc3)C2)CC1 (stereo not drawn) :: 96
25. Cc1cnccc1-c1cccc(N2CC(N3CCN(C(=O)c4nccs4)CC3)CC2=O)c1 (stereo not drawn) :: 99
26. Cc1ncnc(C)c1-c1cccc(N2CC(N3CCN(C(=O)c4nccs4)CC3)CC2=O)c1 (stereo not drawn) :: 100
27. O=C(c1nccs1)N1CCN(C2CC(=O)N(c3ccc4oc(-c5ccc(F)cc5)nc4c3)C2)CC1 (stereo not drawn) :: 99
28. O=C(c1nccs1)N1CCN(C2CC(=O)N(c3cc(F)cc(-c4ccccc4Cl)c3)C2)CC1 (stereo not drawn) :: 104
29. COc1nccc2[nH]cc(-c3cccc(N4CC(N5CCN(C(=O)c6nccs6)CC5)CC4=O)c3)c12 (stereo not drawn) :: 101
30. O=C(c1nccs1)N1CCN(C2CC(=O)N(c3cccc(-c4cccc5cn[nH]c45)c3)C2)CC1 (stereo not drawn) :: 99

---

# testedSystem: human MAGL (His-hMAGL) (Homo sapiens)
# Construct: made in house; host or cells: Escherichia coli BL21(DE3)
# Sequence (Q99685 1-303): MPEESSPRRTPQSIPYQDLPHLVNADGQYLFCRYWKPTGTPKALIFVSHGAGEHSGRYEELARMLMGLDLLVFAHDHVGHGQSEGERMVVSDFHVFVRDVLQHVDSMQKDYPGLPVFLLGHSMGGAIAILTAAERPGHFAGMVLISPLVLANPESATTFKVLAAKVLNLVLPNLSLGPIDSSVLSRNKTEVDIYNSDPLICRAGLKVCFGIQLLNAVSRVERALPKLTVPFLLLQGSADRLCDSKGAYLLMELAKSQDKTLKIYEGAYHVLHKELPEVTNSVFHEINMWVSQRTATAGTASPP
# protocolDetails: Measurement of MAGL inhibitory activity by mass spectrometry
# Format: biochemical
# runConditions: MAGL inhibitory rate, test compound 10 μM, His-hMAGL, substrate 2-arachidonylglycerol, RapidFire-mass spectrometry
# Experimental: Thereafter, to each well was added 150 μM 2-arachidonylglycerol (Tocris Bioscience) by 5 μL, and the mixture was incubated at room temperature for 10 min. […] The amount of arachidonic acid in the obtained enzyme reaction mixture was calculated by measuring by RapidFire-mass spectrometry and correcting by the amount of arachidonic acid-d8. […] The peak area integration was analyzed using RapidFire integrator software version 3.6 (Agilent Technologies, Inc.). […]
Let's look at some compounds and their measured inhibition at 10 µM.
parameterMeasured: inhibition at 10 µM (%)

1. O=C(c1nccs1)N1CCN(C2CC(=O)N(c3ccc4c(c3)CCN4C(=O)CC3CCOCC3)C2)CC1 (stereo not drawn) :: 94
2. O=C(c1cscn1)N1CCN([C@@H]2CC(=O)N(c3ccc4c(c3)CCN4C(=O)Cc3cccc(Cl)c3)C2)CC1 :: 99
3. O=C(c1nccs1)N1CCN(C2CC(=O)N(c3cccc(-c4ccc(Cl)cc4F)c3)C2)CC1 (stereo not drawn) :: 100
4. O=C(c1cscn1)N1CCN([C@@H]2CC(=O)N(c3ccc4c(c3)CCN4c3ccc(C(F)(F)F)cc3)C2)CC1 :: 103
5. O=C1Cc2ccc(-c3cccc(N4CC(N5CCN(C(=O)c6nccs6)CC5)CC4=O)c3)cc2N1 (stereo not drawn) :: 98
6. O=C(c1cscn1)N1CCN([C@@H]2CC(=O)N(c3ccc4c(ccn4-c4ccc(Cl)cc4)c3)C2)CC1 :: 98
7. N#Cc1ccccc1-c1ccc(N2CC(N3CCN(C(=O)c4nccs4)CC3)CC2=O)cc1 (stereo not drawn) :: 96
8. O=C(c1nccs1)N1CCN(C2CC(=O)N(c3cccc(-c4csc5ccccc45)c3)C2)CC1 (stereo not drawn) :: 100
9. CS(=O)(=O)Nc1cccc(-c2ccc(N3CC(N4CCN(C(=O)c5nccs5)CC4)CC3=O)cc2)c1 (stereo not drawn) :: 97
10. O=C(c1nccs1)N1CCN(C2CC(=O)N(c3cccc(-c4n[nH]c5ccccc45)c3)C2)CC1 (stereo not drawn) :: 100
11. Cc1c(-c2cccc(N3CC(N4CCN(C(=O)c5nccs5)CC4)CC3=O)c2)cnn1C (stereo not drawn) :: 101
12. O=C(c1nccs1)N1CCN(C2CC(=O)N(c3cc(F)cc(-c4ccccc4)c3)C2)CC1 (stereo not drawn) :: 99
13. N#Cc1ccc(-c2cccc(N3CC(N4CCN(C(=O)c5nccs5)CC4)CC3=O)c2)c(F)c1 (stereo not drawn) :: 97
14. O=C(c1nccs1)N1CCN(C2CC(=O)N(c3cccc(-c4nsc5ccccc45)c3)C2)CC1 (stereo not drawn) :: 103
15. O=C(c1nccs1)N1CCN(C2CC(=O)N(c3cccc(-c4ccccc4OC(F)(F)F)c3)C2)CC1 (stereo not drawn) :: 101

These entries and their values trace back to patent US9624170B2.
